Measured values drawn from patent US20210188972A1 for this set.

Molecular target: T1, Human PTGFRN-ECD (extracellular domain; amino-acid 26 to amino-acid Y at 832), His-tag protein (human, UniProt Q9P2B2 26-832)
T1 construct: range 26-832; Expressed in Hek-293 cells, purified on a nickel column; also called recombinant PTGFRN; not shown: His-tag
T1 sequence (looked up): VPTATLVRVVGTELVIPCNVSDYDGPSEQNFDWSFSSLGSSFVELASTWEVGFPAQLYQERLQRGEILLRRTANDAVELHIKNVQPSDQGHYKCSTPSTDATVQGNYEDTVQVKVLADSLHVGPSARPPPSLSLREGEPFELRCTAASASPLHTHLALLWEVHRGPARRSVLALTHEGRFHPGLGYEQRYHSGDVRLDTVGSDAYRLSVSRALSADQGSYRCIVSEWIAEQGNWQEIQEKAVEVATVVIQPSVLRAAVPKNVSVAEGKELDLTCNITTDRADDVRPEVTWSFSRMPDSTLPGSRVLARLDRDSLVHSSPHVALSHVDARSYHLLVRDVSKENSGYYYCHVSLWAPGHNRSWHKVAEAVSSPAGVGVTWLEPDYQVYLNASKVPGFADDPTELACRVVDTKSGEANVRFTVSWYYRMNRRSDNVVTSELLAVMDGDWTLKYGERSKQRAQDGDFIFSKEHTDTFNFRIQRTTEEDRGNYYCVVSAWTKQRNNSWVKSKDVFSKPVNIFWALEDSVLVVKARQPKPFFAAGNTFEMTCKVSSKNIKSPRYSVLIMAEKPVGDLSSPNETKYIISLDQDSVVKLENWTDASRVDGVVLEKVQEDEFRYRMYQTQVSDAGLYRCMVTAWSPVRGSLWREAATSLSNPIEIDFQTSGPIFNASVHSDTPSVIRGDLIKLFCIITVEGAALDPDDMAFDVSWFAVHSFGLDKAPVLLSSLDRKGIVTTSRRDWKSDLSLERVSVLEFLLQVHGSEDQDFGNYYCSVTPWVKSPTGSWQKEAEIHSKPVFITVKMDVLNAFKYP
Assay: BLI, Octet Red96, mAb on AMC sensor, PTGFRN-ECD 100 nM as analyte
# kon annotations
Endpoint Label: kon (M⁻¹ s⁻¹)

1) 6F6 (antibody, V domains shown, Mouse hybridoma mAb) VH: QVQLQQSGAELVKPGASVKVSCKASGYTFTTYWMHWVKQRPGQGLEWIGRIHPSDSDTNYNQKFKGKATLTLDKSSSTAYMQLSSLTSEDSAVYYCAMSLYYTMDYWGQGTSVTVSS VL: DIQMTQSPSSLSASLGGKVTITCKASQDIKKYIAWYQHKPGKGPRLLIHYTSTLQPGIPSRFSGSGSGRDYSFSISNLEPEDIATYYCLQYDNLLYTFGGGTKLEIK
69100
2) 2B12 (antibody, V domains shown, Mouse hybridoma mAb) VH: QVQLQQPGAELVKPGASVKMSCKASGYTFTSYWITWVKQGPGQGLEWIGDIYPGSGNTNYNEKFKSKATLTVDTSSSTAYMQLSSLTSEDSAVYYCARFFILTSYYFDYWGQGTTLTVSS VL: GIVMTQSQKFMSTTVGDRVSITCKASQNVGTAVAWFQQKPGQSPKLLIYLASNRYTGVPDRFTGSGSGTDFTLTISNMQSEDLADYFCQQYSNYPLTFGAGTKLELK
48500
3) 10D9 (antibody, V domains shown, Mouse hybridoma mAb) VH: DVQLQESGPGLVKPSQSLSLTCSVTGCSITSGYDWNWIRQFPGNKLEWMGYINYDGNSNYIPSLKNRVSITRDTSKNQFFLKLNSVTTEDTATYYCARSDGYYWYFDVWGTGTTVTVSS VL: DIKMTQSPSSMYASLGERVTITCKASQDIKSYLSWYQQKPWKSPKTLIYYATSLADGVPSRFSASGSGQDYSLTISSLESDDTATYYCLQHAERPLTFGAGTKLELK
85600
